test system: MUTZ-3 cells; test: GARD random forest model for prediction of CLP categories (52 transcripts, Example A); settings: Table 6, independent test set, majority voting across replicates
Assay Endpoint: GARD predicted CLP

Please review the following examples before continuing.
[[record]]
compound = "O=C(OCc1ccccc1)c1ccccc1 [benzyl benzoate]"
value_measured = "1B"

[[record]]
compound = "C=CC(C)(O)CCC=C(C)C (stereo not drawn)"
value_measured = "1B"

[[record]]
compound = "CCCCBr"
value_measured = "no cat"

[[record]]
compound = "O=C(O)c1ccccc1"
value_measured = "no cat"


Exam item: Dear colleague, please send me the reported GARD predicted CLP for CCOC(=O)c1ccccc1C(=O)OCC [diethyl phthalate] when you can.
Marked response: no cat

Exam item: Dear colleague, please send me the reported GARD predicted CLP for Clc1nc(Cl)nc(Cl)n1 [cyanuric chloride] when you can.
Marked response: no cat

Values compiled from patent EP3417074B1.
